The following compounds are listed with their measured inhibition values.
MEASURED TARGET: Voltage-dependent T-type calcium channel subunit alpha-1H (Homo sapiens) (UniProt O95180)
Sequence (O95180 whole entry): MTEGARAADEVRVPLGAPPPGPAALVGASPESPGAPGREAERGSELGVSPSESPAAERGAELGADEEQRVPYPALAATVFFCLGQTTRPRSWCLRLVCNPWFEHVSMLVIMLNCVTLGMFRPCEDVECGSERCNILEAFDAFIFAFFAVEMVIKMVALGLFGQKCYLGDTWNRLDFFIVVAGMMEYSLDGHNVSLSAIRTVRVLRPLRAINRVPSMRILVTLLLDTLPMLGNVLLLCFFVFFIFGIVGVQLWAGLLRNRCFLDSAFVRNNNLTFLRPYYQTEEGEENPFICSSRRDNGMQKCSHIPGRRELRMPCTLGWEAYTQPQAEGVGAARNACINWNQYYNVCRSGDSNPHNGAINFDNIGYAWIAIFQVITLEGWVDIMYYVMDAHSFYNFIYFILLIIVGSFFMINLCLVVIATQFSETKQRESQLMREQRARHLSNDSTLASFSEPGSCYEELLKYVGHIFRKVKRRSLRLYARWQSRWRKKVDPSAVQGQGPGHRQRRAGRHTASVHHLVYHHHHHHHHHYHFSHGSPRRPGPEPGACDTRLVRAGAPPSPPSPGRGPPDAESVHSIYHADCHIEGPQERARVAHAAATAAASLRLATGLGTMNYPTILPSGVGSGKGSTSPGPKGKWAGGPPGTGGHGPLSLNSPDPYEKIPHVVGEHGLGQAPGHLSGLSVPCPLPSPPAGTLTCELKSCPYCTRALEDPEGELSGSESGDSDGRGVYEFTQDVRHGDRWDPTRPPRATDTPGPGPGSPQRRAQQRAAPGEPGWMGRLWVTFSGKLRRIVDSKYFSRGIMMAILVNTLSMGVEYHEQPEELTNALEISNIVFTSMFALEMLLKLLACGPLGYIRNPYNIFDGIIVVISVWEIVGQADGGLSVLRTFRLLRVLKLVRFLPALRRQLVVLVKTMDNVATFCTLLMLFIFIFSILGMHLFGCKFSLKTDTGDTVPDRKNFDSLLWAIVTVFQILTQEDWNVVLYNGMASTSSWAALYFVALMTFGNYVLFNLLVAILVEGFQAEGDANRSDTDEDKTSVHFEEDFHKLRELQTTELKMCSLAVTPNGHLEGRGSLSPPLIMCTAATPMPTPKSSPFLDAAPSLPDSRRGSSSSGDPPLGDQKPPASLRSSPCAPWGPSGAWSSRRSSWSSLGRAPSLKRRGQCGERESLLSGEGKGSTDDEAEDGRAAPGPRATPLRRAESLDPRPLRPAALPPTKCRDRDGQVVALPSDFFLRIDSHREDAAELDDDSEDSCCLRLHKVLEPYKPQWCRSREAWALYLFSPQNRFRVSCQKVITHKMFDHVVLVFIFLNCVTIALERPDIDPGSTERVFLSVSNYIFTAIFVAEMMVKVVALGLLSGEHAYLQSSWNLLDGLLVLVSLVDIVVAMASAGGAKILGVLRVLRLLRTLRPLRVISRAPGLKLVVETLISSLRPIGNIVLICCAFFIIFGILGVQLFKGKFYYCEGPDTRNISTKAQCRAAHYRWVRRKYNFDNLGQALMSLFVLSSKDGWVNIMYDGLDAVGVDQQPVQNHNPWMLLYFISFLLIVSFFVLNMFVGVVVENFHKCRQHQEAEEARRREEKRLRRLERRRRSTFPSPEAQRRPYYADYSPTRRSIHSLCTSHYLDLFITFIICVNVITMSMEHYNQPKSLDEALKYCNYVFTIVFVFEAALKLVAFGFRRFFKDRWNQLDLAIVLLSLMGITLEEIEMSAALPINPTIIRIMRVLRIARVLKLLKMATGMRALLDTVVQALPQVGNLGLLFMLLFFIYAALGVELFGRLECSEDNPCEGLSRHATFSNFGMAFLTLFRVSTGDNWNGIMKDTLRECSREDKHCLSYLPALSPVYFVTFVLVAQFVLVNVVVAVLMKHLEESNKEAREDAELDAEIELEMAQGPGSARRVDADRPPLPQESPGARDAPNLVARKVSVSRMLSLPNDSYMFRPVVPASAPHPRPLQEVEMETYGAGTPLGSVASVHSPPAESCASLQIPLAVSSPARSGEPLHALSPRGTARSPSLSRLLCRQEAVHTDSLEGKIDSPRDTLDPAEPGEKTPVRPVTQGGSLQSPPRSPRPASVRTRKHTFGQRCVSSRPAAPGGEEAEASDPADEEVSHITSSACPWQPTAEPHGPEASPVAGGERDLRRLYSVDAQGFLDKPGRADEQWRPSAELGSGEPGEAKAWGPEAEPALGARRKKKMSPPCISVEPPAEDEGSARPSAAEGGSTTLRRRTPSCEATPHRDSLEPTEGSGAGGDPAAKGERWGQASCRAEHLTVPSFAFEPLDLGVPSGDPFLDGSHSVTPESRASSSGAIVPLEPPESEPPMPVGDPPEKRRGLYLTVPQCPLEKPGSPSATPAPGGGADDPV
EXPERIMENT NOTES: Ability to block calcium channel T type 3.2v expressed in Xenopus oocytes at 100 uM by two-microelectrode voltage-clamp method
Type: functional, cell-based
COND: Oocyte
READOUT: inhibition (%)

COMPOUND	MEASURED TARGET	EXPERIMENTAL RESULT
C[C@H](NC(=O)[C@@H]1COC(=O)[C@H](Cc2ccc(F)cc2)N1)c1ccccc1	Voltage-dependent T-type calcium channel subunit alpha-1H (Homo sapiens) (UniProt O95180)	35.6
COc1ccc(C[C@@H]2N[C@@H](C(=O)NCc3ccccc3)COC2=O)cc1 (relative stereo)	Voltage-dependent T-type calcium channel subunit alpha-1H (Homo sapiens) (UniProt O95180)	16.2
O=C1OC[C@H](C(=O)NCc2ccccc2)N[C@H]1Cc1ccc([N+](=O)[O-])cc1 (relative stereo)	Voltage-dependent T-type calcium channel subunit alpha-1H (Homo sapiens) (UniProt O95180)	6.5
CC(C)[C@@H]1N[C@H](C(=O)NCc2ccccc2)COC1=O (relative stereo)	Voltage-dependent T-type calcium channel subunit alpha-1H (Homo sapiens) (UniProt O95180)	82
CC(C)(C)NC(=O)[C@H]1COC(=O)[C@H](Cc2ccccc2)N1 (relative stereo)	Voltage-dependent T-type calcium channel subunit alpha-1H (Homo sapiens) (UniProt O95180)	42
C[C@H](NC(=O)[C@H]1COC(=O)[C@H](Cc2ccc([N+](=O)[O-])cc2)N1)c1ccccc1	Voltage-dependent T-type calcium channel subunit alpha-1H (Homo sapiens) (UniProt O95180)	25.2
COc1ccc(C[C@@H]2N[C@H](C(=O)NCc3ccccc3)COC2=O)cc1 (relative stereo)	Voltage-dependent T-type calcium channel subunit alpha-1H (Homo sapiens) (UniProt O95180)	54.6
C[C@H](NC(=O)[C@H]1COC(=O)[C@H](Cc2ccc(Cl)cc2)N1)c1ccccc1	Voltage-dependent T-type calcium channel subunit alpha-1H (Homo sapiens) (UniProt O95180)	73.3
CSCC[C@@H]1N[C@H](C(=O)NCc2ccccc2)COC1=O (relative stereo)	Voltage-dependent T-type calcium channel subunit alpha-1H (Homo sapiens) (UniProt O95180)	74
O=C(NCc1ccccc1)[C@@H]1COC(=O)[C@H](Cc2ccccc2)N1 (relative stereo)	Voltage-dependent T-type calcium channel subunit alpha-1H (Homo sapiens) (UniProt O95180)	87
